Target: T1, human Notch2 NRR-Fc (Homo sapiens, UniProt Q04721)
T1 construct: Expression constructs encoding human Notch1 and Notch2 NRR regions, fused with human IgG1 Fc fragments; made in house; host or cells: CHO-PACE cells
T1 sequence (Q04721 1425-1677 limits assumed): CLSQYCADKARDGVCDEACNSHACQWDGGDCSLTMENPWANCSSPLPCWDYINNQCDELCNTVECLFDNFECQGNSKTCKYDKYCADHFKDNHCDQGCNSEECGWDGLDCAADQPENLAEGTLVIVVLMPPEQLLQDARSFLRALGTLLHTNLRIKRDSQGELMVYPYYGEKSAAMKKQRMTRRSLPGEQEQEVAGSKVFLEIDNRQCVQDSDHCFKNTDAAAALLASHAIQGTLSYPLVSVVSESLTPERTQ
Experiment: Binding to Notch2 NRR-Fc
Conditions: N/B = non-binding
attribute-measured: Binding to Notch2 NRR-Fc

ch75: rat-human chimeric anti-Notch3 antibody 75, rat variable regions fused with human IgG1 and human kappa (antibody, V domains shown) VH: QVKLLQSGAALVKPGASVKMSCKASGYAFTDYWVTWVKQSHGKSLEWIGEISPNSGGTNFNEKFKGKATLTVDKSTSTAYMELSRLTSEDSAIYYCTRGEIRYNWFAYWGQGTLVTVSS VL: NIVMTQSPKSMSISVGDRVTMNCKASQNVGNNIAWYQQKPGQSPKLLIYYASNRYTGVPDRFTGGGYGTDFTLTINSMQAEDAAFYYCQRLYNSPFTFGSGTKLEIK; N/B
ch28: rat-human chimeric anti-Notch3 antibody 28, rat variable regions fused with human IgG1 and human kappa (antibody, V domains shown) VH: EVQLVESGGGLVQPGRSLTLSCVASGFTFRDYGMTWIRQAPGKGLTWVAYISSGSNYIYYAEAVKGRFTISRDNAKNTLYLQMTSLRSEDTALYFCTRRGPFVLDAWGQGASVTVSS VL: DIQMTQSPSFLSASVGDRVTINCKASQSINRYLHWFQQKLGEAPKLLIYNANGLQTGIPSRFSGSGSGTDFTLTISSLQSEDVATYFCLQHNTWPDTFGAGTKLELK; N/B
hu28 VH1.0/VL1.0: humanized r28 variant VH1.0/VL1.0, anti-Notch3 antibody (VH SEQ ID NO: 13, VL SEQ ID NO: 25) (antibody, V domains shown) VH: EVQLVESGGGLVQPGGSLRLSCAASGFTFRDYGMTWVRQAPGKGLEWVAYISSGSNYIYYAEAVKGRFTISRDNAKNSLYLQMNSLRAEDTAVYYCARRGPFVLDAWGQGTLVTVSS VL: DIQMTQSPSSLSASVGDRVTITCKASQSINRYLHWYQQKPGKAPKLLIYNANGLQTGVPSRFSGSGSGTDFTLTISSLQPEDFATYYCLQHNTWPDTFGGGTKVEIK; N/B
